# melting point annotations
MEASUREMENT NAME: melting point

compound=CCOC(=O)Cc1cc(Cl)cc(C(=O)c2ccccc2)c1N measurement_name="melting point" readout_value="80 to 82 °C"
compound=CN(C)C=Nc1sc(C=O)c(S(=O)(=O)c2ccccc2)c1C#N measurement_name="melting point" readout_value="262 °C"
compound=CS(=O)(=O)N1CCC=CCC1 measurement_name="melting point" readout_value="95 to 96 °C"
compound="Cc1ccc(S(=O)(=O)OCC2COc3ccc4ccccc4c3O2)cc1 (stereo unspecified)" measurement_name="melting point" readout_value="122 to 124 °C"
compound="CC12CC(=O)C3C(CCC4CC(O)CCC43C)C1CCC2C(=O)COCCN1CCOCC1 (stereo unspecified)" measurement_name="melting point" readout_value="112 to 113 °C"
compound=COCOc1ccccc1-c1nc(N)c(C#N)c(-c2cccc([N+](=O)[O-])c2)c1C measurement_name="melting point" readout_value="154 to 155 °C"
compound=COC(=O)P(=O)(OC)OC measurement_name="melting point" readout_value="150 °C"
compound=O=C(Nc1ccccc1)N1CCc2[nH]c3c(cnc4cc(Cl)ccc43)c2C1 measurement_name="melting point" readout_value="> 260 °C"
compound="COC(=O)C1CC2c3cccc4[nH]cc(c34)CC2N(C(C)C)C1 (stereo unspecified)" measurement_name="melting point" readout_value="193 to 195 °C"
compound=CCCCc1cc2cc(O)c(Cl)c(Cl)c2s1 measurement_name="melting point" readout_value="35 °C"
compound=COC(=O)c1cc(Br)c(O)c(Br)n1 measurement_name="melting point" readout_value="148 to 150 °C"

* * *

MEASUREMENT NAME: melting point

compound=Cc1oc(-c2ccccc2)nc1CCOc1ccc(C(=O)O)c(O)c1 readout_value="192 to 194 °C"
compound="CCC1c2c(ncn2CC)CCN1C(=S)NC(C)C (centres undefined)" readout_value="195 °C"
compound=Cc1[nH]n(C2CCCC2)c2nc(-c3cc[nH]c(=O)c3)nc(=O)c1-2 readout_value="> 300 °C"
compound=CCCc1nc2cnc3ccccc3c2n1CCCCNS(=O)(=O)c1ccccc1 readout_value="156 to 157 °C"
compound=O=C(Cc1ccccc1)N=C1SCCN1Cc1ccc(Cl)nc1 readout_value="157 to 158 °C"
compound=CC(C)(C)c1cc(C(=NNc2ccccc2)c2cccnc2Cl)cc(C(C)(C)C)c1O readout_value="181 °C"
compound=C[Si](C)(C)O[Si]1(O[Si](C)(C)C)O[Si](O[Si](C)(C)C)(O[Si](C)(C)C)O[Si](O[Si](C)(C)C)(O[Si](C)(C)C)O1 readout_value="103 °C"
compound=CCOC(=O)c1ccc(-c2ccc(OC)c(-c3cccc([N+](=O)[O-])c3)c2)cc1 readout_value="106 to 108 °C"
compound=O=C(O)CCCC(c1ccccc1)c1ccccc1 readout_value="87 to 90 °C"
compound=CCOC(=O)c1cc2c3ccccc3n(Cc3ccccc3)c2cn1 readout_value="126 to 127 °C"
compound=FC(F)(F)c1ccc(-c2cc(Oc3cccc4ccc(Cl)nc34)ncn2)cc1 readout_value="172 to 173 °C"
compound=COc1cccc([C@H]2O[C@H](CC(=O)Nc3ccc4oc(C(=O)O)c(OC(C)C)c4c3)C(=O)N(CC(C)(C)CO)c3ccc(Cl)cc32)c1OC readout_value="174 to 175 °C"
compound="COc1ccc(C(=O)C2CCC(CCO)CC2)cc1O (centres undefined)" readout_value="107 to 109 °C"
compound=O=C(NCCCCCCNC(=O)c1ccc(O)cc1)c1ccc(O)cc1 readout_value="220 to 222 °C"
compound=Cc1cc(N(C)c2ccccc2)c2nn(C)cc2n1 readout_value="252 to 256 °C"
compound=CN1C(=O)CCCc2ccc(Nc3ncc(Cl)c(N[C@@H]4CCCC[C@H]4NS(C)(=O)=O)n3)cc21 readout_value="127 to 130 °C"
compound="CCCC(=O)Oc1ccc(C(O)CNC(C)(C)C)cc1OC(=O)CCC (centres undefined)" readout_value="97 to 99 °C"
compound="COc1cc(OC)nc(C2(O)OC(=O)c3c(-c4ccc(Cl)cc4)ccnc32)n1 (centres undefined)" readout_value="228 to 231 °C"
compound=O=c1[nH]c2ccc3ccc(-n4cccc4CN4CCN(Cc5ccccc5)CC4)cc3c2[nH]c1=O readout_value="> 250 °C"

Each recorded value in this set is attributed to a melting point compilation (Tetko et al.; mined from patent text by program, amines drawn as free bases though some values may be those of a salt).
